Source: ChEMBL document CHEMBL1201862

- Test system: SF-539
- protocol: NCI tumour cell line growth inhibition, 48 h
Activity calls are given as the source filed them. No stated cut-off is given here; in the data, active = GI50 up to about 1.1 µM and inactive = higher.
testReadout: GI50

Below is a list of molecules. For each, state its recorded GI50.
1. CC(C)OC1OC(CO)C(O)CC1n1cc(F)c(=O)[nH]c1=O (stereo not given)
2. O=C(Nc1ccccc1)c1cc(S(=O)(=O)n2ccnc2O)c(S)cc1Cl
3. N/C(COc1ccc(Cl)cc1)=N\NC(=O)c1ccncc1
4. O=C(CC(=O)C1CCOC1=O)C(=O)Nc1cccc(Cl)c1 (stereo not given)
5. CCOC(=O)c1c(-c2ccccc2)[nH]c2ccc(Cl)cc2c1=O

Return:
> 100 µM (inactive)
> 100 µM (inactive)
> 100 µM (inactive)
> 100 µM (inactive)
29.9 µM (inactive)

====

Assay system HCT-15; read-out recorded as GI50.
Give bare numbers, in µM.

Consider O=C1SC(SCc2ccccc2)=NC12CC2c1ccccc1 (stereo not given) . Its measured GI50 is 20.4

For the 4 compounds below, give their GI50 values.
1. CN1C=C(C(N)=O)C2CC(O)[C@@](NC(=O)CS(N)(=O)=O)(C(=O)O)C2C1 (stereo not given in full)
2. Cc1cc(OCc2nnc3n2N=C(c2cc(F)c(Cl)cc2Cl)/C(=C/c2ccc(-c4ccc(Cl)cc4)o2)S3)ccc1Cl
3. COC(=O)/C(C#N)=C/c1cc(C(C)(C)C)c(O)c(C(C)(C)C)c1
4. COc1ccc(/C=C2\CCS(=O)(=O)c3ccccc3C2=O)cc1

Return:
1. 8.91
2. 34
3. 2.67
4. 19.6

====

- Tested on: SW-620
- protocol: NCI tumour cell line growth inhibition, 48 h
Active and inactive are the calls of the source. Rule as the data show it: active = GI50 up to about 1.1 µM and inactive = higher.
Outcomes you can answer with include only these: active, inactive

Answered examples (2):
Enquiry: GET /call?item= C=CCO/N=C(\OC(=O)c1ccc([N+](=O)[O-])cc1)c1ccccc1 returns the recorded outcome of this test.
Return: inactive

Enquiry: Please share the test call associated with O=C(N/N=C\c1ccccc1)Nc1cccc2ccccc12 .
Return: inactive

More entries:
Enquiry: What was the test verdict on Cc1cc(C)[n+](CCOc2ccc(/C(=C(/Cl)c3ccccc3)c3ccccc3)cc2)c(C)c1.[O-][Cl+3]([O-])([O-])[O-] ?
Return: active

Enquiry: What is the recorded call for this compound in the test? O=C(NCCN1CCCC1)c1cn2c(ccc3sc4ccccc4c(=O)c32)n1
Return: inactive

Enquiry: What is the recorded call for this compound in the test? CN1CCN(c2nc3ccccc3nc2C(=O)c2ccc(Cl)cc2)CC1
Return: inactive

====

Assign GI50 to each entry below.
- Tested on: HCT-116
- protocol: NCI tumour cell line growth inhibition, 48 h
Activity calls are given as the source filed them. No stated cut-off is given here; in the data, active = GI50 up to about 1.1 µM and inactive = higher.

Answered cases to consult:
GI50 recorded for this molecule, Fc1cccc(F)c1C1SCC2=Nc3ccccc3CN21 (stereo not drawn) , is 26.5 µM (inactive)

The reported value for NC(=S)N/N=C1\CCCC\C1=C/c1ccccc1 in terms of GI50 is 58.2 µM (inactive)

The reported value for CC12CCC3=C(CSC4=C3CSc3ccccc34)C1=CCCC2=O (stereo not drawn) in terms of GI50 is 58.3 µM (inactive)

Measured GI50, O=C(Nc1ccn(CCO)c(=O)n1)c1ccccc1 : > 100 µM (inactive)

Kindly note the recorded GI50 for COc1ccccc1NC(=O)C1=C(C)NC(C)=C(C(=O)Nc2ccccc2OC)C1c1ccccc1OC , which is 38.9 µM (inactive)

# per-item lookup of GI50; items listed below
1. NC(=O)c1ccc(Cl)c([N+](=O)[O-])c1
2. CCOC(=O)CCC(NC(=O)c1ccc(/N=C/c2nc3cc(C(F)(F)F)ccc3nc2-c2ccccc2)cc1)C(=O)OCC (stereo not drawn)
3. COC(=O)c1ccc(OCc2ccc3nc(-c4ccccc4)c(Cl)nc3c2)cc1

Return:
1. > 100 µM (inactive)
2. 6.56 µM (inactive)
3. 83 µM (inactive)
